# procedureText: Half life in rat at 2 mg/kg, iv
# Assay type: ADME, organism-based
# Set-up: dose 2 mg/kg, route intravenous
# conditionInfo: in vivo
# half-life annotations

# compound, half-life, h
records = [
    ("CNC(=O)c1ccc(Oc2ccc(C#C[C@]3(O)CN4CCC3CC4)cc2)cc1", 1.9),
    ("O=C(NC1CCCS(=O)(=O)C1)c1ccc(Oc2ccc(C#C[C@]3(O)CN4CCC3CC4)cc2)cc1 (single isomer, unassigned; diastereomer 1)", 4.8),
    ("CN1CCC(NC(=O)c2ccc(Oc3ccc(C#C[C@]4(O)CN5CCC4CC5)cc3)cc2)CC1", 10.1),
]
